# maps each entry to its melting point

chemical-string: CN(C)C(=O)COc1ccc2c(c1)C[C@@H](NC[C@H](O)c1ccc(O)c(CO)c1)CC2
melting point: 175 to 176 °C
--
chemical-string: COc1cc2c(Nc3ccc(Sc4ccccn4)cc3)c(C#N)cnc2cc1F
melting point: 231 to 233 °C
--
chemical-string: CSc1sc(-c2nnn(C)n2)c2c1C(=O)CC(C)(C)C2
melting point: 233 to 235 °C
--
chemical-string: O=C(O)c1cnc2ccn(Cc3ccccc3)n2c1=O
melting point: 198 to 199 °C

Let us examine a further case.
Report melting point for `Cn1c(C(=O)OC(C)(C)C)c(Br)c2cc(OCc3ccccc3)ccc21` please.
97 to 99 °C

###

Below is a list of entries, each paired with its recorded melting point value.

compound: O=C(Cl)N1CC(Oc2ccc(F)cc2Cl)C1
melting point: 93 to 94 °C

Quick one: melting point for `CC(C)(C)OC(=O)Nc1ccc(C#Cc2ccccc2Cl)cc1N` ?
120 to 122 °C

Form field: reported melting point of `CN1CCN(c2ccc(-c3cnc4[nH]cc(C(=O)C5(C)CCCCC5)c4n3)cc2)CC1`
225 to 226 °C

I have this compound here, `COCCNC(=O)c1cccc(-c2cccc3cc(Cc4ccc(F)cc4F)sc23)c1` , and I need its recorded melting point.
94 to 95 °C

What value of melting point has been recorded for this entry: CCOC(=O)C1=C(C#N)NC(C)=C(C(=O)OCCOCc2ccccc2)C1c1ccccc1[N+](=O)[O-] (centres undefined)
139 to 140 °C

What measured melting point goes with `COCCc1nc2c(N)nc3cc(OCc4cccnc4)ccc3c2n1CC(C)(C)O` ?
200 to 202 °C

Which melting point value is on record for `Cc1nc2ccccc2n1Cc1ccc(C(=O)NC2CCN(C(=O)OC(C)(C)C)CC2)cc1` ?
77 to 79 °C

Which melting point value is on record for `CCNC(=S)Nc1nc2ccc(OC(F)(F)F)cc2s1` ?
199 to 200 °C

Please report the recorded melting point for `COC1=C(OC)C(=O)C2=C(CCC(CCOc3ccc(C)cc3)CC2)C1=O` .
56 to 57 °C

###

Each entry below carries its recorded melting point.

Check out these entries, answers already filled in.
compound: Cn1c(-c2ccc(-n3ccnc3)cc2)cnc1[C@H](Cc1ccccn1)N(C=O)c1cc2cc(Cl)ccc2o1
melting point: 63 to 73 °C
//
compound: CCOC(=O)C1=C(C)NC(c2csc(C)n2)=NC1c1ccc(O)cc1 (stereo not given)
melting point: 208 to 210 °C
//
compound: O=C1CCC(N2C(=O)c3cccc(CNC(=O)c4cccc(C(F)(F)F)c4F)c3C2=O)C(=O)N1 (stereo not given)
melting point: 155 to 157 °C
//
compound: CC(c1oc2ccccc2c(=O)c1-c1cccc(F)c1)n1nc(-c2cc(O)cc(F)c2)c2c(N)ncnc21 (stereo not given)
melting point: 271 to 273 °C

Now turn to the next compound.
Field request: melting point | item: `COc1c(C(=O)O)oc2c3ccccc3n(-c3ccccc3)c12`
154 to 155 °C

###

Recorded measurements of melting point, one per entry

Answered examples (4):
compound: CCOC(=O)C(C(C)=O)=C(N)C(F)(F)F
melting point: 63 to 65 °C
--
compound: Cc1c(Sc2ccccc2)c2cccc3c2n1C(CN1CCOCC1)CO3 (single isomer, unassigned; (+))
melting point: 126 to 128 °C
--
compound: CC(C)C[C@H](NS(=O)(=O)c1cccc2ccccc12)C(=O)N[C@H]1CCCOC1O (some centres undefined)
melting point: 159 to 161 °C
--
compound: O=C(O)Cc1cc(C(=O)c2ccc(F)cc2)ccc1O
melting point: 218 °C

Dear colleague, I am looking for the recorded melting point of the following compound: `Cc1cnccc1CO`
77 to 80 °C

Any idea what its melting point is? The compound is COc1c(Nc2ncc(Cl)c(Nc3ccccc3S(=O)(=O)N(C)C)n2)ccc2c1CCC(NCC(F)F)CC2 (centres undefined)
118 °C

Form field: reported melting point of `Cc1c(C(=O)c2sc(Nc3ccc(S(N)(=O)=O)cc3)nc2N)ncn1C`
293 to 294 °C

Fill blank: measured melting point of the compound COc1ccc(C(C#N)CNC(=O)C(N)=O)cc1OC1CCCC1 (centres undefined) is ____.
176 to 177 °C

Give its melting point value. Item: CCC1(NC(=O)C(Br)CCl)COCOC1 (centres undefined)
95 to 109 °C

###

Entries and their melting point values follow.

Study these solved cases before continuing.
compound: CN1[C@H]2CC[C@@H]1[C@H](C(=O)Oc1ccc(Cl)cc1)[C@@H](c1ccc(F)cc1)C2
melting point: 64 to 66 °C
--
compound: Cc1ccc([N+](=O)[O-])cc1COCC(F)(F)C(F)(F)F
melting point: 53.5 to 54.5 °C

State the recorded melting point for this entry: `CCOC(=O)c1ccc(OCc2nc(-c3ccco3)oc2C)c(Cl)c1`
145 to 146 °C

Can you share its melting point? I mean this compound: `c1cc(N2CCCCC2)ccc1OC12CCC(CC1)CC2`
66 to 68 °C

Given the compound `COCCNC(=O)c1cccc(-c2cccc3c(C)c(Cc4ccc(F)c(Cl)c4)sc23)c1` , what is its reported melting point?
141 to 142 °C

Item `OC(=S)Cc1ccc(Cl)cc1` has what recorded melting point?
106 °C

For the compound Cc1nc2cccc(S(=O)(=O)n3c(COC(C)C(=O)O)cc4nc(Cl)ccc43)c2s1 (stereo not drawn) , what melting point is on record?
203 to 205 °C

Which melting point is reported for this compound? `O=C(O)c1ccccc1C(=O)Nc1cccc(-c2ccnc3c(C(=O)c4cccs4)cnn23)c1`
215 to 216 °C

Item `O=C(CCc1nc(-c2ccccn2)no1)NC1CCN(Cc2ccc(Cl)c(F)c2)CC1` has what recorded melting point?
132 °C

Query: melting point; subject: `Cc1cc(C)c2c(c1OCC(=O)O)Cc1sc(SCCC(c3ccccc3)c3ccccc3)nc1-2`
156 to 158 °C

Consider the compound shown here: `CCOC(=O)c1cc(OC)c2c(C)c(CCN(CC)CC)c(=O)oc2c1Cl` What is its recorded melting point?
147 to 148 °C

Endpoint output: melting point of `NS(=O)(=O)c1cc(CC(=O)C=CC(=O)O)ccc1Cl` . Value?
217 to 218 °C

# query: melting point of entry CO[C@@]1(C)[C@@H](NC(=O)C(F)(F)F)CC(OC(=O)c2ccc([N+](=O)[O-])cc2)O[C@H]1C (stereo partly drawn)
180 to 181 °C

Dear colleague, I am looking for the recorded melting point of the following compound: `O=C1c2ccccc2C(=O)N1OCCc1cn(C(c2ccccc2)(c2ccccc2)c2ccccc2)cn1`
177 °C

Fill in: melting point of `CCO[C@@H](Cc1ccc(OCCc2nc(-c3ccc(C(F)(F)F)cc3)oc2C)c2ccccc12)C(=O)O` is ___
153 to 155 °C

Can you look up the measured melting point of O=C(NOCC(O)CO)c1ccc(F)c(F)c1Nc1ccc(I)cc1F (stereo not drawn) for me?
117 to 118 °C

Endpoint output: melting point of `C[C@@H]1CN(c2ccc(-c3[nH]nc4c3C(=O)c3c(NC(=O)NN5CCOCC5)cccc3-4)cc2)C[C@H](C)N1C` . Value?
240 °C

Which melting point reading was recorded for the compound CC1(C(=O)O)CCCCC1O (stereo not drawn) ?
97 °C

melting point lookup needed for CC(C(=O)O)c1ccc(CC2CCCCC2=NO)cc1 (stereo not drawn) , thanks.
143 to 150 °C

Can you look up the measured melting point of O=C(Cn1c(-c2ccc([N+](=O)[O-])cc2)ncc(NC(=O)OCc2ccccc2)c1=O)NC(Cc1ccccc1)C(=O)C(F)(F)F (stereo not drawn) for me?
117 to 121 °C

What value of melting point has been reported for the following compound? `COc1cc(C(=O)CCCN2CCC(OC(=O)c3cc(Cl)c(N)c4c3OC(C)(C)C4)CC2)cc(OC)c1OC`
154 °C

###

Overview of recorded melting point for various molecules

In the examples that follow, each entry is paired with its recorded melting point.
molecule: NCC1CCc2[nH]c3ccc(Cl)cc3c2C1 (stereo unspecified)
melting point: 142 to 144 °C
//
molecule: CCCc1c(OCCCCCOc2cccc3cc(C(=O)O)oc23)ccc2c1OCCC2=O
melting point: 79.5 to 81 °C
//
molecule: O=C(O)c1c(Cl)ccc([N+](=O)[O-])c1Nc1ccc(OCc2ccccc2)cc1
melting point: 172 to 174 °C
//
molecule: O=C(CCN1CCCC1)Nc1ccc2nc3ccc(NC(=O)CCN4CCCC4)cc3c(Cl)c2c1
melting point: > 320 °C
//
molecule: CC(C)(C)c1ccc(/C=N/OCCOc2ccc(C(=O)O)c(OC(=O)c3ccc(C(F)(F)F)cc3)c2)cc1
melting point: 146 to 148 °C
//
molecule: CCOC(=O)c1c(C)nc(-c2ccccc2)nc1-c1ccc(F)cc1
melting point: 82 to 94 °C
//
molecule: CN(C(=O)OCc1ccccc1)c1ccc2c(c1)C(=O)C1(CC1)O2
melting point: 79 to 81 °C
//
molecule: CCCOc1cnc(CCl)cc1O
melting point: 165 to 167 °C
//
molecule: N#Cc1cnn(-c2ccc(Cl)c(Cl)c2Cl)c1N1CCCC1=O
melting point: 160 to 161 °C
//
molecule: CC(C)/C=C(/C(=O)O)c1ccc(S(C)(=O)=O)cc1
melting point: 179 to 182 °C

Need melting point of `COc1ccc(-c2csc(NC(=O)C(=O)OCCc3ccccc3)n2)cc1` , thanks.
165 to 167 °C

Look up melting point for this molecule: `COc1ccc(NC(=O)Nc2ccccc2)cc1`
196 to 198 °C

Query (molecule): `CCN(CC)c1ccc(-n2c(CC(=O)O)c(C(=O)O)c3cc(Oc4cccc(Cl)c4)ccc32)cc1` ; field requested: melting point
186 to 191 °C
